Test: Mycobacterium tuberculosis growth inhibition, primary screen (AID 1259343)
Settings: at 10 µM, hits give high values
About 2,900 (47%) of roughly 6,200 compounds were called active. The set was probably picked from earlier hits. This is one part of the list.
measurement_kind: inhibition

These recorded examples may help you get a feel for the data.
CCCCN(C)c1ccc(C(=O)N2CCc3sccc3C2)cc1
9.79% (inactive)
CCC(C)C(=O)Nc1ccc(Cl)c2cccnc12 (configuration not stated)
-29.8% (inactive)
Cc1nc(-c2c[nH]c(C(=O)NC3CCC4CCCC4C3)c2)cs1 (configuration not stated)
87.9% (active)

Working through the 8 compounds below one at a time, give inhibition for each.
1. CC(Sc1n[nH]c(-c2ccc(Cl)cc2)n1)C(=O)NCc1ccco1 (configuration not stated)
2. C(=Cc1ccccc1)C=NNc1ncnc2ccccc12
3. CC(C)c1nc(CN(C)Cc2ccc3ccccc3n2)cs1
4. Cc1nonc1OCCCNc1ccc([N+](=O)[O-])cc1
5. CCCc1cc(=O)[nH]c(-n2nc(C)cc2NC(=O)Cc2cccs2)n1
6. O=C(COC(=O)c1n[nH]c(=O)c2ccccc12)Nc1ccc2c(c1)CCC2
7. Clc1ccccc1C(c1ccccc1)(c1ccccc1)n1ccnc1
8. O=C(N1CCc2ccccc2C1)N1c2ccccc2Sc2ccccc21

1: 42% (inactive); 2: 99.2% (active); 3: 2.62% (inactive); 4: 37.2% (inactive); 5: -25.1% (inactive); 6: 37.8% (inactive); 7: 68.1% (active); 8: -20% (inactive)

State the recorded inhibition for every item in the following list.
1. O=C(O)c1cccc(=O)n1CCOc1ccccc1Cl
2. Cc1ccc(CNC(=O)CN2CCc3sccc3C2C)cc1 (configuration not stated)
3. O=C(NCc1ccccc1)c1c(O)nc2sccn2c1=O
4. O=C(Nc1ccc(Oc2ccc(Cl)cc2)c(Cl)c1)c1cc(I)cc(I)c1O
5. O=C(NCc1ccc(F)cc1)c1c(O)nc2sccn2c1=O
6. CC(=O)CCc1ccc(OCCCOc2ccc(Cl)c3cccnc23)cc1
7. O=c1[nH]c2cc(Cl)ccc2c(O)c1-c1ccc(Oc2ccccc2)cc1
8. O=C(c1c(-c2ccc(Br)cc2)c2ccccc2[nH]c1=O)C(F)(F)F

1. 53.1% (active)
2. 27% (inactive)
3. 63.3% (active)
4. 101% (active)
5. 59.5% (active)
6. 69.7% (active)
7. 17.5% (inactive)
8. 18.7% (inactive)

Give one value of inhibition per listed compound.
1. S=c1ccss1
2. COc1c2ccccc2nc2occc12
3. Cc1sc2nc(-c3cccs3)nc(N3CCNC(C(N)=O)C3)c2c1C (configuration not stated)
4. O=S(=O)(Nc1ccc(SC(F)F)cc1)c1ccc(F)c(F)c1
5. Oc1ccc(C=NNc2ncnc3scc(-c4ccccc4)c23)c(O)c1
6. O=C(COCC(F)(F)F)Nc1ccc2c(c1)C(=O)CCC2
7. Cc1ccc(C(C)C)cc1OCCCn1cnc2ccccc21

["101% (active)", "89.7% (active)", "26% (inactive)", "96.8% (active)", "12.7% (inactive)", "81.5% (active)", "78.4% (active)"]
